// data source = PubChem BioAssay (NCATS)

Tested on: PAD
procedure.summary: qHTS profiling for inhibitors of Plasmodium falciparum proliferation (AID 504749); also: nearly all actives have a fitted effect of over 60% in size
condition.details: P. falciparum in erythrocytes, SYBR Green DNA, 72 h; series mostly up to 28.7 µM
Inconclusive results are not listed. The source made the active and inactive calls. Calls follow the shape of the dose curve; as a rule, active = well fitted inhibition curve with a large enough effect; inconclusive = small, poorly fitted or top-dose-only effect; inactive = flat fitted curve, though single readings scatter.
Select the correct class. Options are 1 for active, -1 for inactive and nothing else.

Solved entries:
O=C(O)CO.[NH2-].[NH2-].[Pt+2]
-1
O=c1[nH]c(=O)n(C2CCCO2)cc1F (stereo unspecified)
-1
CC1(C)O[C@@H]2C[C@@H]3[C@H]4C[C@@H](F)C5=CC(=O)C=C[C@]5(C)[C@@]4(F)[C@@H](O)C[C@]3(C)[C@]2(C(=O)CO)O1
-1
CC[C@H]1CN2CCc3cc(OC)c(OC)cc3[C@H]2C[C@@H]1C[C@@H]1NCCc2cc(OC)c(OC)cc21
1
Nc1ccn([C@@H]2O[C@H](CO)[C@H](O)C2(F)F)c(=O)n1
1

Now consider a different molecule.
Which outcome was assigned to "Nc1ccn([C@@H]2CS[C@H](CO)O2)c(=O)n1" in this test? -1

* * *

Provide the reported parasite growth, % of control (lower = inhibition) of each item.
procedure.summary: qHTS profiling of the MIPE4 collection as inhibitors of Plasmodium falciparum (DD2) proliferation (Rep 2) (AID 743346)
condition.details: P. falciparum Dd2 in erythrocytes, SYBR Green DNA, 72 h; at 28.5 µM (top of the series) unless noted
One number for each entry, in %.

COCCOc1ccc2c(c1)ncn2-c1ccc2cccc(N3CCC(N)CC3)c2n1
13.1
Nc1cccc(-c2cc3c(Oc4cccc(O)c4)ncnc3[nH]2)c1
52.9
CC1(C)O[C@@H]2C[C@@H]3[C@H]4C[C@@H](F)C5=CC(=O)C=C[C@]5(C)[C@@]4(F)[C@@H](O)C[C@]3(C)[C@]2(C(=O)CO)O1
53.7
COC(=O)c1ccc2c(C(=Nc3ccc(N(C)C(=O)CN4CCN(C)CC4)cc3)c3ccccc3)c(O)[nH]c2c1
13.4

Reported parasite growth, % of control (lower = inhibition), compound "COc1cc2c(Oc3ccc(-c4cnc(Nc5ccc(F)cc5)n(C)c4=O)cc3F)ccnc2cc1OCCCN1CCOCC1" : ____ 17

* * *

Provide the reported activity change, negative = inhibition of each item.
procedure.summary: qHTS assay to identify inhibitors of the type 1 interferon - major histocompatibility complex class I in skeletal muscle: Counter screen cell viability and HiBit confirmation (AID 1347412); also: % is scaled to controls: 0 for no effect and ±100 for the full control effect; nearly all actives have a fitted effect of over 60% in size
condition.details: iHSKM muscle cells + IFN-b, HiBiT or CellTiter-Glo, 24 h; Viability; at 45.9 µM (top of the series)
Results filed as inconclusive are left out. Calls of active or inactive are those of the source. The call rests on the fitted dose curve; in most records, active means well fitted inhibition curve with a large enough effect; inconclusive means small, poorly fitted or top-dose-only effect; inactive means no such curve, though single readings can be large or run the other way.

A selection of reference data follows.
OCCCNc1cc(-c2ccnc(Nc3cccc(Cl)c3)n2)ccn1
15.1% (inactive)
Nc1nc(NCCNc2ncc(-n3ccnc3)c(-c3ccc(Cl)cc3Cl)n2)ccc1[N+](=O)[O-]
-15.1% (inactive)
COc1cccc2nc(-c3cccs3)nc(NN3C(=O)C=C(C)C3=O)c12
41.4% (inactive)

Hi, could you look up activity change, negative = inhibition for each item in my list?
1. CC1(O)CC(c2nc(-c3ccc4ccc(-c5ccccc5)nc4c3)c3c(N)nccn23)C1 (stereo not drawn)
2. C=CC(=O)Nc1cc2c(Nc3ccc(F)c(Cl)c3)ncnc2cc1OCCCN1CCOCC1
3. CN(C)Cc1c(C(=O)NCCOc2ccc(C(=O)NO)cc2)oc2ccccc12
4. CC(C)c1cnn2c(NCc3ccccc3)cc(N[C@@H](CO)[C@H](O)CO)nc12
5. Cn1cncc1[C@@](N)(c1ccc(Cl)cc1)c1ccc2c(c1)c(-c1cccc(Cl)c1)cc(=O)n2C
6. O=C(NC1CCNCC1)c1[nH]ncc1NC(=O)c1c(Cl)cccc1Cl

-13.8% (inactive)
-26.8% (inactive)
-5.27% (inactive)
18.9% (inactive)
-17.4% (inactive)
4.1% (inactive)
